Tested on: strain Pyt^T
METHOD DESCRIPTION: Antibiotic resistance by the Etest method (MIC)
Assay type: cell-based, Akkermansia glycaniphilus
CONDITION DESCRIPTION: Etest; EUCAST breakpoint table for Gram-negative anaerobes (Version 5.0)
Procedure: Antibiotic resistance was determined using the Etest method for both ampicillin and vancomycin (bioMérieux, Marcy l'Étoile, France). The minimal inhibitory concentration (MIC) was determined after 48 hours of incubation. […] The level of resistance was determined using the European Committee on Antimicrobial Susceptibility Testing (EUCAST) breakpoint table for interpretation of MICs for Gram-negative anaerobes (Version 5.0, valid from 2015-01-01).
MEASURED QUANTITY: Level of resistance / sensitivity of strain Pyt^T to the antibiotic

>>> result("O=C(N[C@H](CO)[C@H](O)c1ccc([N+](=O)[O-])cc1)C(Cl)Cl")
"sensitive"
>>> result("Cc1ncc([N+](=O)[O-])n1CCO")
"sensitive"
>>> result("CC1(C)S[C@@H]2[C@H](NC(=O)[C@H](N)c3ccccc3)C(=O)N2[C@H]1C(=O)O")
"relatively resistant"
>>> result("CN[C@H](CC(C)C)C(=O)N[C@H]1C(=O)N[C@@H](CC(N)=O)C(=O)N[C@H]2C(=O)N[C@H]3C(=O)N[C@H](C(=O)N[C@H](C(=O)O)c4cc(O)cc(O)c4-c4cc3ccc4O)[C@H](O)c3ccc(c(Cl)c3)Oc3cc2cc(c3O[C@@H]2O[C@H](CO)[C@@H](O)[C@H](O)[C@H]2O[C@H]2C[C@](C)(N)[C@H](O)[C@H](C)O2)Oc2ccc(cc2Cl)[C@H]1O")
"relatively resistant"
